Test system: COR-L88 (Small Cell Lung Carcinoma)
procedure details: Bliss excess, mean over the matrix (fraction); higher = more synergy
measurement name: Bliss excess

[
  {
    "compound": "CC1(C)CCC(CN2CCN(c3ccc(C(=O)NS(=O)(=O)c4ccc(NCC5CCOCC5)c([N+](=O)[O-])c4)c(Oc4cnc5[nH]ccc5c4)c3)CC2)=C(c2ccc(Cl)cc2)C1 [Venetoclax] + C1CN(CCC1(C(=O)N[C@@H](CCO)C2=CC=C(C=C2)Cl)N)C3=NC=NC4=C3C=CN4 [Capivasertib] (first compound max 1 µM, 7x7, partner max 3 µM)",
    "Bliss excess": -0.0181
  },
  {
    "compound": "CN(CCO)CC[C@H](CSc1ccccc1)Nc1ccc(S(=O)(=O)NC(=O)c2ccc(N3CCC([C@@H](O)c4ccccc4-c4ccc(Cl)cc4)CC3)cc2)cc1S(=O)(=O)C(F)(F)F [AZD4320] + CS(=O)(=O)CCNCc1ccc(-c2ccc3ncnc(Nc4ccc(OCc5cccc(F)c5)c(Cl)c4)c3c2)o1 [Lapatinib] (first compound max 1 µM, 7x7, partner max 10 µM)",
    "Bliss excess": 0.0911
  }
]

[in] Short answer please: Bliss excess, COR-L88 (Small Cell Lung Carcinoma), entry CN(CCO)CC[C@H](CSc1ccccc1)Nc1ccc(S(=O)(=O)NC(=O)c2ccc(N3CCC([C@@H](O)c4ccccc4-c4ccc(Cl)cc4)CC3)cc2)cc1S(=O)(=O)C(F)(F)F [AZD4320] + CN(C)CCCOc1ccc(-c2ccc3ncc4c(c3c2)n(C2CCOCC2)c(=O)n4C)cn1 [AZD0156] (first compound max 1 µM, 7x7, partner max 1 µM)
[out] -0.0161

[in] Query the reported Bliss excess for COR-L88 (Small Cell Lung Carcinoma); item: CC1(C)CCC(CN2CCN(c3ccc(C(=O)NS(=O)(=O)c4ccc(NCC5CCOCC5)c([N+](=O)[O-])c4)c(Oc4cnc5[nH]ccc5c4)c3)CC2)=C(c2ccc(Cl)cc2)C1 [Venetoclax] + C=CCn1c(=O)c2cnc(Nc3ccc(N4CCN(C)CC4)cc3)nc2n1-c1cccc(C(C)(C)O)n1 [AZD1775] (first compound max 1 µM, partner max 1 µM)
[out] 0.0736

[in] Query the reported Bliss excess for COR-L88 (Small Cell Lung Carcinoma); item: CN(C)CCCOc1ccc(-c2ccc3ncc4c(c3c2)n(C2CCOCC2)c(=O)n4C)cn1 [AZD0156] + C=CCn1c(=O)c2cnc(Nc3ccc(N4CCN(C)CC4)cc3)nc2n1-c1cccc(C(C)(C)O)n1 [AZD1775] (first compound max 1 µM, partner max 1 µM)
[out] -0.0013

[in] Find Bliss excess (COR-L88 (Small Cell Lung Carcinoma)) for the entry Cc1c2c(nn1C)CSCc1cc(n(C)n1)CSc1cc(c3ccccc3c1)OCCCc1c(C(=O)O)n(C)c3c-2c(Cl)ccc13 [AZD5991] + C=CCn1c(=O)c2cnc(Nc3ccc(N4CCN(C)CC4)cc3)nc2n1-c1cccc(C(C)(C)O)n1 [AZD1775] (first compound max 1 µM, partner max 1 µM)
[out] -0.0463

----------
Test system: NCI-H1876 (Small Cell Lung Carcinoma)
procedure details: combination Emax (second highest fraction inhibited in the dose matrix, 72 h); higher = more inhibition; extreme values may be limits of the assay
Assign class 1 whenever combination Emax does not fall below 0.9; assign class 0 whenever it does.

Reference set (5 entries):
[
  {
    "compound": "CCN(CCO)CCCOc1ccc2c(Nc3cc(CC(=O)Nc4cccc(F)c4)[nH]n3)ncnc2c1 [AZD2811] + O=C(c1cc(Cc2n[nH]c(=O)c3ccccc23)ccc1F)N1CCN(C(=O)C2CC2)CC1 [Olaparib] (first compound max 1 µM, 7x7, partner max 10 µM)",
    "group": "class 0"
  },
  {
    "compound": "NC1(C(=O)N[C@@H](CCO)c2ccc(Cl)cc2)CCN(c2ncnc3[nH]ccc23)CC1 [Capivasertib] + CC(=O)c1c(C)c2cnc(Nc3ccc(N4CCNCC4)cn3)nc2n(C2CCCC2)c1=O [Palbociclib] (first compound max 10 µM, 7x7, partner max 10 µM)",
    "group": "class 0"
  },
  {
    "compound": "C=CCn1c(=O)c2cnc(Nc3ccc(N4CCN(C)CC4)cc3)nc2n1-c1cccc(C(C)(C)O)n1 [AZD1775] + O=C(c1cc(Cc2n[nH]c(=O)c3ccccc23)ccc1F)N1CCN(C(=O)C2CC2)CC1 [Olaparib] (first compound max 1 µM, partner max 10 µM)",
    "group": "class 1"
  },
  {
    "compound": "Cc1cc2ncnn2cc1Nc1ncc2c(n1)n(C1CCOCC1)c(=O)n2C [AZD7648] + CCN(CCO)CCCOc1ccc2c(Nc3cc(CC(=O)Nc4cccc(F)c4)[nH]n3)ncnc2c1 [AZD2811] (first compound max 10 µM, 7x7, partner max 1 µM)",
    "group": "class 0"
  },
  {
    "compound": "Cc1c2c(nn1C)CSCc1cc(n(C)n1)CSc1cc(c3ccccc3c1)OCCCc1c(C(=O)O)n(C)c3c-2c(Cl)ccc13 [AZD5991] + C[C@@H]1COCCN1C2=NC(=NC(=C2)C3(CC3)[S@](=N)(=O)C)C4=C5C=CNC5=NC=C4 [AZD6738] (first compound max 1 µM, 7x7, partner max 10 µM)",
    "group": "class 1"
  }
]

Query compound follows.
[in] Answer whether combination Emax of NC1(C(=O)N[C@@H](CCO)c2ccc(Cl)cc2)CCN(c2ncnc3[nH]ccc23)CC1 [Capivasertib] + C[C@@H]1COCCN1C2=NC(=NC(=C2)C3(CC3)[S@](=N)(=O)C)C4=C5C=CNC5=NC=C4 [AZD6738] (first compound max 10 µM, 7x7, partner max 10 µM) is greater than or equal to 0.9.
[out] class 1

----------
// reported Bliss excess per item
System: CL-11 (Colorectal Carcinoma)
procedure details: Bliss excess, mean over the matrix (fraction); higher = more synergy
Please reply with the number alone, leaving off any unit.

Example cases with answers are listed next.
[
  {
    "compound": "COc1cccc(OCCCN)c1-c1cc(Nc2cnc(C#N)cn2)n[nH]1 [Prexasertib] + CCc1c2c(nc3ccc(O)cc13)-c1cc3c(c(=O)n1C2)COC(=O)[C@]3(O)CC [SN-38] (first compound max 1 µM, 7x7, partner max 0.3 µM)",
    "measured on": "CL-11 (Colorectal Carcinoma)",
    "measurement name": "Bliss excess",
    "measured": 0.0172
  },
  {
    "compound": "Cn1cnc2c(F)c(Nc3ccc(Br)cc3Cl)c(C(=O)NOCCO)cc21 [Selumetinib] + CCN(CCO)CCCOc1ccc2c(Nc3cc(CC(=O)Nc4cccc(F)c4)[nH]n3)ncnc2c1 [AZD2811] (first compound max 10 µM, 7x7, partner max 1 µM)",
    "measured on": "CL-11 (Colorectal Carcinoma)",
    "measurement name": "Bliss excess",
    "measured": 0.0129
  },
  {
    "compound": "COc1cccc2c1C(=O)c1c(O)c3c(c(O)c1C2=O)C[C@@](O)(C(=O)CO)C[C@@H]3O[C@H]1C[C@H](N)[C@H](O)[C@H](C)O1 [Doxorubicin] + Cc1cc2ncnn2cc1Nc1ncc2c(n1)n(C1CCOCC1)c(=O)n2C [AZD7648] (first compound max 1 µM, 7x7, partner max 10 µM)",
    "measured on": "CL-11 (Colorectal Carcinoma)",
    "measurement name": "Bliss excess",
    "measured": 0.0863
  }
]

Alright, here's another compound for you.
[in] Entry under review: Cc1cc2ncnn2cc1Nc1ncc2c(n1)n(C1CCOCC1)c(=O)n2C [AZD7648] + CCN(CCO)CCCOc1ccc2c(Nc3cc(CC(=O)Nc4cccc(F)c4)[nH]n3)ncnc2c1 [AZD2811] (first compound max 10 µM, 7x7, partner max 1 µM) . Reported Bliss excess?
[out] 0.0274

----------
Test system: SKG-IIIa (Cervical Carcinoma)
procedure details: combination Emax (second highest fraction inhibited in the dose matrix, 72 h); higher = more inhibition; extreme values may be limits of the assay
measurement name: combination Emax
Please respond with just the number, no unit label.

[
  {
    "compound": "C[C@@H]1COCCN1c1cc(C2([S@](C)(=N)=O)CC2)nc(-c2ccnc3[nH]ccc23)n1 [AZD6738] + Nc1ccn([C@@H]2O[C@H](CO)[C@@H](O)C2(F)F)c(=O)n1 [Gemcitabine] (first compound max 10 µM, 7x7, partner max 0.3 µM)",
    "combination Emax": 0.623
  }
]

Attention now turns to another entry.
[in] Bench note: what combination Emax did Cc1c2c(nn1C)CSCc1cc(n(C)n1)CSc1cc(c3ccccc3c1)OCCCc1c(C(=O)O)n(C)c3c-2c(Cl)ccc13 [AZD5991] + C1CN(CCC1(C(=O)N[C@@H](CCO)C2=CC=C(C=C2)Cl)N)C3=NC=NC4=C3C=CN4 [Capivasertib] (first compound max 1 µM, 7x7, partner max 3 µM) show?
[out] 0.18

----------
Tested on: COR-L88 (Small Cell Lung Carcinoma)
procedure details: combination Emax (second highest fraction inhibited in the dose matrix, 72 h); higher = more inhibition; extreme values may be limits of the assay
# reported combination Emax; entries follow

[
  {
    "molecule": "CN(C)CCCOc1ccc(-c2ccc3ncc4c(c3c2)n(C2CCOCC2)c(=O)n4C)cn1 [AZD0156] + C[C@@H]1COCCN1C2=NC(=NC(=C2)C3(CC3)[S@](=N)(=O)C)C4=C5C=CNC5=NC=C4 [AZD6738] (first compound max 1 µM, 7x7, partner max 10 µM)",
    "combination Emax": 0.8
  },
  {
    "molecule": "COc1cccc(OCCCN)c1-c1cc(Nc2cnc(C#N)cn2)n[nH]1 [Prexasertib] + CN(C)CCCOc1ccc(-c2ccc3ncc4c(c3c2)n(C2CCOCC2)c(=O)n4C)cn1 [AZD0156] (first compound max 1 µM, 7x7, partner max 1 µM)",
    "combination Emax": 0.843
  },
  {
    "molecule": "Cc1c2c(nn1C)CSCc1cc(n(C)n1)CSc1cc(c3ccccc3c1)OCCCc1c(C(=O)O)n(C)c3c-2c(Cl)ccc13 [AZD5991] + C[C@@H](Nc1cc(F)cc(F)c1)c1cc(C(=O)N(C)C)cc2c(=O)cc(N3CCOCC3)oc12 [AZD8186] (first compound max 1 µM, 7x7, partner max 3 µM)",
    "combination Emax": 0.221
  },
  {
    "molecule": "C[C@@H](c1ccc2nccn2c1)n1nnc2ncc(-c3cnn(C)c3)nc21 [Savolitinib] + Cc1c2c(nn1C)CSCc1cc(n(C)n1)CSc1cc(c3ccccc3c1)OCCCc1c(C(=O)O)n(C)c3c-2c(Cl)ccc13 [AZD5991] (first compound max 1 µM, 7x7, partner max 1 µM)",
    "combination Emax": 0.23
  },
  {
    "molecule": "CS(=O)(=O)CCNCc1ccc(-c2ccc3ncnc(Nc4ccc(OCc5cccc(F)c5)c(Cl)c4)c3c2)o1 [Lapatinib] + Cn1cnc2c(F)c(Nc3ccc(Br)cc3Cl)c(C(=O)NOCCO)cc21 [Selumetinib] (first compound max 10 µM, 7x7, partner max 10 µM)",
    "combination Emax": 0.215
  }
]

[in] So what does the record say about combination Emax for CN(CCO)CC[C@H](CSc1ccccc1)Nc1ccc(S(=O)(=O)NC(=O)c2ccc(N3CCC([C@@H](O)c4ccccc4-c4ccc(Cl)cc4)CC3)cc2)cc1S(=O)(=O)C(F)(F)F [AZD4320] + Cc1cc2ncnn2cc1Nc1ncc2c(n1)n(C1CCOCC1)c(=O)n2C [AZD7648] (first compound max 1 µM, 7x7, partner max 10 µM) ?
[out] 0.964

[in] What does the data say about its combination Emax? Entry: Cn1cnc2c(F)c(Nc3ccc(Br)cc3Cl)c(C(=O)NOCCO)cc21 [Selumetinib] + CCN(CCO)CCCOc1ccc2c(Nc3cc(CC(=O)Nc4cccc(F)c4)[nH]n3)ncnc2c1 [AZD2811] (first compound max 10 µM, 7x7, partner max 1 µM)
[out] 0.257
